- Test system: U2OS
- EXPERIMENT_DESCRIPTION: Multiplex assay against U2OS
- Format: toxicity, cell-based
- CONDITIONS_USED: human, 24 h, 10 µM, compound concentration 10 uM, replicate 2
Each record here notes measured Population Healthy Nuclei (%).
ATTRIBUTE_MEASURED: Population Healthy Nuclei (%)

> print(dat)
                                smiles.text  quantitative.result
1  CCCCN(CC)c1nc(C)nc2c1c(C)cn2-c1c(C)cc(C)cc1C.Cl                   80
2  CCCc1cc(C)[nH]c(=O)c1CNC(=O)c1cc(-c2ccc(N3CCN(C(C)C)CC3)nc2)cc2c1cnn2C(C)C                   48
3  Cc1c(P(=S)(c2ccccc2)c2ccccc2)n2ccccc2[n+]1C/C=C/c1ccccc1.[Br-]                   38
4  C=CC(=O)Nc1cc(-n2c(=O)ccc3cnc4ccc(-c5ccc(NS(C)(=O)=O)cc5)cc4c32)ccc1C                   32

* * *

- System: Fibroblast
- EXPERIMENT_DESCRIPTION: Multiplex assay against human fibroblast
- Assay type: toxicity, cell-based
- CONDITIONS_USED: 24 h, 1 µM, compound concentration 1 uM, replicate 2
ATTRIBUTE_MEASURED: Population Mitotic Cells (%)

> print(dat)
                                   compound  quantitative.result
1  CCOC(=O)CCNc1cc(N2CCc3ccccc3CC2)nc(-c2ccccn2)n1                    0
2  NC(=O)c1ccc2nc(-c3ccc(C4(N)CCC4)cc3)c(-c3ccccc3)n2n1                   36
3  Cc1ccc(NC(=O)Nc2cc(C(F)(F)F)ccc2F)cc1Nc1ccc2c(c1)NC(=O)/C2=C\c1ccc[nH]1                    0
4  CC(C)c1cc(Nc2nc(N3CCC[C@H](N)C3)ncc2C(N)=O)cc(C(C)C)n1                   73
5  Cc1c(P(=S)(c2ccccc2)c2ccccc2)n2ccccc2[n+]1C/C=C/c1ccccc1.[Br-]                   25
6  Cc1c(Nc2ccc(S(=O)(=O)N3CCN(C)CC3)cc2F)nc2ccc(Nc3cnn(C4CC4)c3)cn2c1=O                    0
7  CN(c1cc(C(F)(F)F)nc(OCCC(=O)O)n1)c1cccc2c1CCC2                    0
8  Cc1c(Nc2ccc(S(=O)(=O)N3CCN(C)CC3)cc2F)nc2ccc(-c3cnn(C4CC4)c3)cn2c1=O                   20
9  CCCCCNC(=N)N/N=C/c1c[nH]c2ccc(OC)cc12.O=C(O)/C=C\C(=O)O [TEGASEROD MALEATE]                   12

* * *

Each record here notes measured Population Healthy Nuclei (%).
- Tested on: Fibroblast
- EXPERIMENT_DESCRIPTION: Multiplex assay against human fibroblast
- Type: toxicity, cell-based
- CONDITIONS_USED: 12 h, 10 µM, compound concentration 10 uM, replicate 1
ATTRIBUTE_MEASURED: Population Healthy Nuclei (%)

> print(dat)
                                    compound  unit.spec  quantitative.result
 1  CCCCCNC(=N)N/N=C/c1c[nH]c2ccc(OC)cc12.O=C(O)/C=C\C(=O)O [TEGASEROD MALEATE]          %                   12
 2  CCOc1ccn(-c2ccc(F)cc2)c(=O)c1C(=O)Nc1ccc(Oc2ccnc(N)c2Cl)c(F)c1 [BMS-777607]          %                   60
 3  c1ccc(-c2oc3ncnc(NC[C@@H]4CCCO4)c3c2-c2ccccc2)cc1          %                   41
 4  C=CC(=O)Nc1cc(-n2c(=O)ccc3cnc4ccc(-c5ccc(NS(C)(=O)=O)cc5)cc4c32)ccc1C          %                   39
 5  Cc1c(Nc2ccc(S(=O)(=O)N3CCN(C)CC3)cc2F)nc2ccc(Nc3cnn(C4CC4)c3)cn2c1=O          %                   58
 6  Cc1c(P(=S)(c2ccccc2)c2ccccc2)n2ccccc2[n+]1C/C=C/c1ccccc1.[Br-]          %                   14
 7  N#Cc1cccc(C(=O)Nc2cc(-c3ccccc3)nn2-c2ccccc2)c1          %                   42
 8  Cc1ccc(NC(=O)Nc2cc(C(F)(F)F)ccc2F)cc1Nc1ccc2c(c1)NC(=O)/C2=C\c1ccc[nH]1          %                   52
 9  CC[C@@]1(O)C(=O)OCc2c1cc1n(c2=O)Cc2cc3ccccc3nc2-1 [CAMPTOTHECIN]          %                   43
10  C[C@@H](Oc1cc(-n2cnc3ccc(CN4CCN(C)CC4)cc32)sc1C(N)=O)c1ccccc1C(F)(F)F [GSK-461364]          %                   40
11  Oc1cccc(-c2nc(N3CCOCC3)c3oc4ncccc4c3n2)c1 [PI-103]          %                   34

* * *

- Test system: U2OS
- EXPERIMENT_DESCRIPTION: Multiplex assay against U2OS
- Format: toxicity, cell-based
- CONDITIONS_USED: human, 12 h, 1 µM, compound concentration 1 uM, replicate 2
Param threshold (20%) applies to Population Tubulin-Different-Phenotype (%); output met when value >= threshold, not met when value < threshold.

> print(dat)
                                    compound  group.label
 1  CC(C)C[C@H](NC(=O)[C@H](Cc1ccccc1)NC(=O)CNC(=O)CNC(=O)[C@@H](N)Cc1ccc(O)cc1)C(=O)O          met
 2  CC(C)[C@H](CO)Nc1nc(Nc2cccc(Cl)c2)c2ncn(C(C)C)c2n1      not met
 3  CC(C)c1cc(Nc2nc(N3CCC[C@H](N)C3)ncc2C(N)=O)cc(C(C)C)n1          met
 4  Cc1c(Nc2ccc(S(=O)(=O)N3CCN(C)CC3)cc2F)nc2ccc(-c3cnn(C4CC4)c3)cn2c1=O      not met
 5  CC[C@@H]1C(=O)N(C)c2cnc(Nc3ccc(C(=O)N[C@H]4CC[C@H](N5CCN(CC6CC6)CC5)CC4)cc3OC)nc2N1C(C)C          met
 6  CC(Cc1ccc(O)c(O)c1)C(C)Cc1ccc(O)c(O)c1 (stereo not given) [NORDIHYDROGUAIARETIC ACID]          met
 7  CCCCN(CC)c1nc(C)nc2c1c(C)cn2-c1c(C)cc(C)cc1C.Cl      not met
 8  Cc1ccc(NC(=O)Nc2cc(C(F)(F)F)ccc2F)cc1Nc1ccc2c(c1)NC(=O)/C2=C\c1ccc[nH]1          met
 9  Cl.NC[C@@H]1O[C@H](C23CC4CC(CC(C4)C2)C3)Cc2c1ccc(O)c2O      not met
10  CC[C@@H]1C(=O)N(C)c2cnc(Nc3ccc(C(=O)NC4CCN(C)CC4)cc3OC)nc2N1C1CCCC1          met

* * *

- Tested on: U2OS
- EXPERIMENT_DESCRIPTION: Multiplex assay against U2OS
- Assay type: toxicity, cell-based
- CONDITIONS_USED: human, 24 h, 1 µM, compound concentration 1 uM, replicate 1
ATTRIBUTE_MEASURED: Population Tubulin-Different-Phenotype (%)

> print(dat)
                                   molecule  quantitative.result
1  c1ccc(-c2oc3ncnc(NC[C@@H]4CCCO4)c3c2-c2ccccc2)cc1                   83
2  Cc1c(P(=S)(c2ccccc2)c2ccccc2)n2ccccc2[n+]1C/C=C/c1ccccc1.[Br-]                   12
3  CN1C(=O)[C@@H](NC(=O)c2cc3ccccc3[nH]2)N=C(c2ccccc2)c2ccccc21 [DEVAZEPIDE]                   12
4  CN(c1cc(C(F)(F)F)nc(OCCC(=O)O)n1)c1cccc2c1CCC2                    5
5  CC(C)c1cc(Nc2nc(N3CCC[C@H](N)C3)ncc2C(N)=O)cc(C(C)C)n1                   98

* * *

- System: U2OS
- EXPERIMENT_DESCRIPTION: Multiplex assay against U2OS
- Format: toxicity, cell-based
- CONDITIONS_USED: human, 24 h, 1 µM, compound concentration 1 uM, replicate 1
ATTRIBUTE_MEASURED: Population Tubulin-Different-Phenotype (%)

> print(dat)
                                   molecule  result
1  CCCCCNC(=N)N/N=C/c1c[nH]c2ccc(OC)cc12.O=C(O)/C=C\C(=O)O [TEGASEROD MALEATE]     13%
2  Cc1ccc(S(=O)(=O)NC2c3ccccc3Oc3ccccc32)cc1      5%
3  Cl.NC[C@@H]1O[C@H](C23CC4CC(CC(C4)C2)C3)Cc2c1ccc(O)c2O      9%
4  CCOC(=O)CCNc1cc(N2CCc3ccccc3CC2)nc(-c2ccccn2)n1     36%
